Each entry below lists one item and its recorded cAMP EC50 (1.0% HSA) value.
System: human GLP-1 receptor (human, UniProt P43220 24-463)
Protocol: cell-based or functional assay
*1 amine or outer side, *2 acyl side, *3 side chain or, on linkers, in order; H or OH if unused. Where no end group is shown, it is not given here. Side-chain parts run from the residue outwards. [ ]: non-standard residue; d: D form. The star is where a group is joined. Decanoyl(10-(4-HOOC-PhO)) = O=C(O)c1ccc(OCCCCCCCCCC(=O)*)cc1; αMePhe(2-F) = C[C@](N)(Cc1ccccc1F)C(=O)O; γGlu = O=C(O)[C@H](CCC(=O)[*:2])N[*:1]; C14 diacid = O=C(O)CCCCCCCCCCCCC(=O)*; αMeY = C[C@](N)(Cc1ccc(O)cc1)C(=O)O; αMeL = CC(C)C[C@](C)(N)C(=O)O; αMeS = C[C@](N)(CO)C(=O)O; Orn = NCCC[C@H](N)C(=O)O; AEEA = NCCOCCOCC(=O)O; Aib = CC(C)(N)C(=O)O
Readout: cAMP EC50 (1.0% HSA) (nM)

Binder | Readout | Measured Value
Y[Aib]EGT[αMePhe(2-F)]TSDV[Aib]I[αMeL]LD[Orn]IAQ[Aib][Orn]FIK([AEEA-AEEA-γGlu-C14 diacid])[αMeY]LIK([AEEA-AEEA-γGlu-C14 diacid])GGPSSGAPPPS-NH2 [Example 317] | cAMP EC50 (1.0% HSA) | 29.5
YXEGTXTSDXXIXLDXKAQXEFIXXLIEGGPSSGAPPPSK (Y-Aib-EGT-αMeF(2F)-TSD-4Pal-Aib-I-αMeL-LD-Orn-K((2-[2-(2-Amino-ethoxy)-ethoxy]-acetyl)2-(γ-Glu)-(10-(4-carboxyphenoxy)decanoyl))AQ-Aib-EFI-(D-Glu)-αMeY-LIEGGPSSGAPPPSK((2-[2-(2-Amino-ethoxy)-ethoxy]-acetyl)2-(γ-Glu)-(10-(4-carboxyphenoxy)decanoyl))-NH2) [Example 245] | cAMP EC50 (1.0% HSA) | 27
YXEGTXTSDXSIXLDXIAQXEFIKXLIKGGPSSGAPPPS (Y-Aib-EGT-αMeF(2F)-TSD-hTyr-SI-αMeL-LD-Orn-IAQ-Aib-EFIK((2-[2-(2-Amino-ethoxy)-ethoxy]-acetyl)2-(γ-Glu)-CO-(CH2)12-CO2H)-αMeY-LIK((2-[2-(2-Amino-ethoxy)-ethoxy]-acetyl)2-(γ-Glu)-CO-(CH2)12-CO2H)GGPSSGAPPPS-NH2) [Example 270] | cAMP EC50 (1.0% HSA) | 32.6
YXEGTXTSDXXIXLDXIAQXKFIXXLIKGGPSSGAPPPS (Y-Aib-EGT-αMeF(2F)-TSD-4Pal-Aib-I-αMeL-LD-Orn-IAQ-Aib-K((2-[2-(2-Amino-ethoxy)-ethoxy]-acetyl)2-(γ-Glu)-(10-(4-carboxyphenoxy)decanoyl))FI-(D-Glu)-αMeY-LIK((2-[2-(2-Amino-ethoxy)-ethoxy]-acetyl)2-(γ-Glu)-(10-(4-carboxyphenoxy)decanoyl))GGPSSGAPPPS-NH2) [Example 247] | cAMP EC50 (1.0% HSA) | 77.7
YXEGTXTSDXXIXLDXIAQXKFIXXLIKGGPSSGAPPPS (Y-Aib-EGT-αMeF(2F)-TSD-4Pal-Aib-I-αMeL-LD-Orn-IAQ-Aib-K(2-[2-(2-Amino-ethoxy)-ethoxy]-acetyl)2-(γ-Glu)-(11-(4-carboxyphenoxy)undecanoyl)FI-(D-Glu)-αMeY-LIK((2-[2-(2-Amino-ethoxy)-ethoxy]-acetyl)2-(γ-Glu)-(11-(4-carboxyphenoxy)undecanoyl)GGPSSGAPPPS-NH2)) [Example 331] | cAMP EC50 (1.0% HSA) | 223
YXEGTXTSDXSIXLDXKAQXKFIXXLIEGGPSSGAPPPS (Y-Aib-EGT-αMeF(2F)-TSD-2Nal-SI-αMeL-LD-Orn-K((2-[2-(2-Amino-ethoxy)-ethoxy]-acetyl)2-(γ-Glu)-CO-(CH2)12-CO2H)AQ-Aib-K((2-[2-(2-Amino-ethoxy)-ethoxy]-acetyl)2-(γ-Glu)-CO-(CH2)12-CO2H)FI-(D-Glu)-αMeY-LIEGGPSSGAPPPS-NH2) [Example 249] | cAMP EC50 (1.0% HSA) | 51.6
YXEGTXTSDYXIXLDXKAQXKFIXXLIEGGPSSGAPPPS (Y-Aib-EGT-αMeF(2F)-TSDY-Aib-I-αMeL-LD-Orn-K((2-[2-(2-Amino-ethoxy)-ethoxy]-acetyl)2-(γ-Glu)-CO-(CH2)10-CH3)AQ-Aib-K((2-[2-(2-Amino-ethoxy)-ethoxy]-acetyl)2-(γ-Glu)-CO-(CH2)10-CH3)FI-(D-Glu)-αMeY-LIEGGPSSGAPPPS-NH2) [Example 300] | cAMP EC50 (1.0% HSA) | 19.6
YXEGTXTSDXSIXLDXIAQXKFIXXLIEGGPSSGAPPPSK (Y-Aib-EGT-αMeF(2F)-TSD-OMeY-SI-αMeL-LD-Orn-IAQ-Aib-K((2-[2-(2-Amino-ethoxy)-ethoxy]-acetyl)2-CO-(CH2)12-CO2H)FI-(D-Glu)-αMeY-LIEGGPSSGAPPPSK((2-[2-(2-Amino-ethoxy)-ethoxy]-acetyl)2-CO-(CH2)12-CO2H)-NH2) [Example 268] | cAMP EC50 (1.0% HSA) | 26.5
YXEGTXTSDXXIXLDXIAQXXFIKXLIKGGPSSGAPPPS (Y-Aib-EGT-αMeF(2F)-TSD-4Pal-Aib-I-αMeL-LD-Orn-IAQ-Aib-Orn-FIK((2-[2-(2-Amino-ethoxy)-ethoxy]-acetyl)2-(γ-Glu)-CO-(CH2)12-CO2H)-αMeY-LIK((2-[2-(2-Amino-ethoxy)-ethoxy]-acetyl)2-(γ-Glu)-CO-(CH2)12-CO2H)GGPSSGAPPPS-NH2) [Example 315] | cAMP EC50 (1.0% HSA) | 5.38
Y[Aib]EGT[αMePhe(2-F)]TSDV[αMeS]I[αMeL]LD[Orn]IAQ[Aib]EFIK([AEEA-AEEA-γGlu-Decanoyl(10-(4-HOOC-PhO))])[αMeY]LIK([AEEA-AEEA-γGlu-Decanoyl(10-(4-HOOC-PhO))])GGPSSGAPPPS-NH2 [Example 309] | cAMP EC50 (1.0% HSA) | 64.6
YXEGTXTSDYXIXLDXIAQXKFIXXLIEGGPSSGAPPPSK (Y-Aib-EGT-αMeF(2F)-TSDY-Aib-I-αMeL-LD-Orn-IAQ-Aib-K((2-[2-(2-Amino-ethoxy)-ethoxy]-acetyl)2-(γ-Glu)-(10-(4-carboxyphenoxy)decanoyl))FI-(D-Glu)-αMeY-LIEGGPSSGAPPPSK((2-[2-(2-Amino-ethoxy)-ethoxy]-acetyl)2-(γ-Glu)-(10-(4-carboxyphenoxy)decanoyl))-NH2) [Example 241] | cAMP EC50 (1.0% HSA) | 103
